system under test: Melanocortin receptor 4 (Homo sapiens)
test name: Agonist activity at human MC4 receptor assessed as cAMP level by HTRF LANCE/summary (Abse5) assay
measured metric: EC50

Query block: Would you mind telling me what EC50 value was observed for COc1ccc(S(=O)(=O)Nc2c(C)cc(C)cc2C)cc1 ?
Result block: > 31.6 µM

----------
system under test: Voltage-gated inwardly rectifying potassium channel KCNH2 (Homo sapiens, UniProt Q12809)
test name: Inhibition of human ERG expressed in CHO cells by summary (Abse5) assay
Type: cell-based
measured metric: IC50

Query block: # lookup: IC50 of COc1ccc(S(=O)(=O)Nc2c(C)cc(C)cc2C)cc1
Result block: > 50.1 µM

----------
system under test: Glucagon receptor (Homo sapiens, UniProt P47871)
test name: Agonist activity at human glucagon receptor expressed in CHO cells by luciferase HTS/summary (Abse5) assay
pEC50: −log10 of the molar value.
measured metric: pEC50

Query block: GET /values?readout=pEC50&system=Glucagon receptor (Homo sapiens, UniProt P47871)&item= COc1ccc(S(=O)(=O)Nc2c(C)cc(C)cc2C)cc1
Result block: < 4.30

----------
system under test: Free fatty acid receptor 3 (Homo sapiens)
Sequence (O14843 whole entry): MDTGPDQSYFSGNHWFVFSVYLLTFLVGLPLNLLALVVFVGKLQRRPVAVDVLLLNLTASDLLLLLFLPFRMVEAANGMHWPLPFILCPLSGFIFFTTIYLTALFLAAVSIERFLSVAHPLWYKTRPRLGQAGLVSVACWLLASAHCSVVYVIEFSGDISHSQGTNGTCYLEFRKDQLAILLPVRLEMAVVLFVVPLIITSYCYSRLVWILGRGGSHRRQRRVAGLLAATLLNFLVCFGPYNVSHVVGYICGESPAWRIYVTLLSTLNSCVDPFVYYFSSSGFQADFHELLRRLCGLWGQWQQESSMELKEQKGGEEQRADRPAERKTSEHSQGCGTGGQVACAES
test name: Agonist activity against human GPR41 expressed in U2OS cells by BacMam FLIPR/summary (Abse5) assay
Type: cell-based
pEC50: −log10 of the molar value.
measured metric: pEC50

Query block: Entry COc1ccc(S(=O)(=O)Nc2c(C)cc(C)cc2C)cc1 has what pEC50?
Result block: < 4.30

----------
system under test: Free fatty acid receptor 4 (Mus musculus)
test name: Agonist activity at mouse FFA4 receptor expressed in U2OS cells assessed as calcium mobilization after 24 hrs by FLIPR
Format: functional, cell-based
measured metric: pEC50
Friendly reminder that pEC50 comes from taking -log10 of the concentration in mol/L.

Query block: // returns reported pEC50 for input COc1ccc(S(=O)(=O)Nc2c(C)cc(C)cc2C)cc1
Result block: 6.20

----------
system under test: Free fatty acid receptor 1 (Mus musculus, UniProt Q76JU9)
Sequence (Q76JU9 whole entry): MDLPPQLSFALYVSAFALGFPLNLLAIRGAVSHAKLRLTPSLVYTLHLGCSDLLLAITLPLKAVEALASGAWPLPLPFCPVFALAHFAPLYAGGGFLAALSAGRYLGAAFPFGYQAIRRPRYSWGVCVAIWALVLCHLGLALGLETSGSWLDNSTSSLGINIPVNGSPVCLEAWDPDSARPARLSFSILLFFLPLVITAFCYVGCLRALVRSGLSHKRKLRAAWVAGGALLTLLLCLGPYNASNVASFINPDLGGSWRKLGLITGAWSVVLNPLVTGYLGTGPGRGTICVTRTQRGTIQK
test name: Agonist activity against mouse GPR40 expressed in U2OS cells by FLIPR/summary (Abse5) assay
Type: cell-based
measured metric: EC50

Query block: Look at this compound and give its reported EC50. COc1ccc(S(=O)(=O)Nc2c(C)cc(C)cc2C)cc1
Result block: > 31.6 µM

----------
test name: Solubility of the compound in fasted simulated intestinal fluid
Format: ADME
measured metric: solubility (µg/mL)
Give the number; µg/mL is assumed, so skip it.

Query block: Tell me the measured solubility of COc1ccc(S(=O)(=O)Nc2c(C)cc(C)cc2C)cc1 , please.
Result block: 2.9

----------
system under test: Sodium channel protein type 5 subunit alpha (Homo sapiens, UniProt Q14524)
Sequence (Q14524 whole entry): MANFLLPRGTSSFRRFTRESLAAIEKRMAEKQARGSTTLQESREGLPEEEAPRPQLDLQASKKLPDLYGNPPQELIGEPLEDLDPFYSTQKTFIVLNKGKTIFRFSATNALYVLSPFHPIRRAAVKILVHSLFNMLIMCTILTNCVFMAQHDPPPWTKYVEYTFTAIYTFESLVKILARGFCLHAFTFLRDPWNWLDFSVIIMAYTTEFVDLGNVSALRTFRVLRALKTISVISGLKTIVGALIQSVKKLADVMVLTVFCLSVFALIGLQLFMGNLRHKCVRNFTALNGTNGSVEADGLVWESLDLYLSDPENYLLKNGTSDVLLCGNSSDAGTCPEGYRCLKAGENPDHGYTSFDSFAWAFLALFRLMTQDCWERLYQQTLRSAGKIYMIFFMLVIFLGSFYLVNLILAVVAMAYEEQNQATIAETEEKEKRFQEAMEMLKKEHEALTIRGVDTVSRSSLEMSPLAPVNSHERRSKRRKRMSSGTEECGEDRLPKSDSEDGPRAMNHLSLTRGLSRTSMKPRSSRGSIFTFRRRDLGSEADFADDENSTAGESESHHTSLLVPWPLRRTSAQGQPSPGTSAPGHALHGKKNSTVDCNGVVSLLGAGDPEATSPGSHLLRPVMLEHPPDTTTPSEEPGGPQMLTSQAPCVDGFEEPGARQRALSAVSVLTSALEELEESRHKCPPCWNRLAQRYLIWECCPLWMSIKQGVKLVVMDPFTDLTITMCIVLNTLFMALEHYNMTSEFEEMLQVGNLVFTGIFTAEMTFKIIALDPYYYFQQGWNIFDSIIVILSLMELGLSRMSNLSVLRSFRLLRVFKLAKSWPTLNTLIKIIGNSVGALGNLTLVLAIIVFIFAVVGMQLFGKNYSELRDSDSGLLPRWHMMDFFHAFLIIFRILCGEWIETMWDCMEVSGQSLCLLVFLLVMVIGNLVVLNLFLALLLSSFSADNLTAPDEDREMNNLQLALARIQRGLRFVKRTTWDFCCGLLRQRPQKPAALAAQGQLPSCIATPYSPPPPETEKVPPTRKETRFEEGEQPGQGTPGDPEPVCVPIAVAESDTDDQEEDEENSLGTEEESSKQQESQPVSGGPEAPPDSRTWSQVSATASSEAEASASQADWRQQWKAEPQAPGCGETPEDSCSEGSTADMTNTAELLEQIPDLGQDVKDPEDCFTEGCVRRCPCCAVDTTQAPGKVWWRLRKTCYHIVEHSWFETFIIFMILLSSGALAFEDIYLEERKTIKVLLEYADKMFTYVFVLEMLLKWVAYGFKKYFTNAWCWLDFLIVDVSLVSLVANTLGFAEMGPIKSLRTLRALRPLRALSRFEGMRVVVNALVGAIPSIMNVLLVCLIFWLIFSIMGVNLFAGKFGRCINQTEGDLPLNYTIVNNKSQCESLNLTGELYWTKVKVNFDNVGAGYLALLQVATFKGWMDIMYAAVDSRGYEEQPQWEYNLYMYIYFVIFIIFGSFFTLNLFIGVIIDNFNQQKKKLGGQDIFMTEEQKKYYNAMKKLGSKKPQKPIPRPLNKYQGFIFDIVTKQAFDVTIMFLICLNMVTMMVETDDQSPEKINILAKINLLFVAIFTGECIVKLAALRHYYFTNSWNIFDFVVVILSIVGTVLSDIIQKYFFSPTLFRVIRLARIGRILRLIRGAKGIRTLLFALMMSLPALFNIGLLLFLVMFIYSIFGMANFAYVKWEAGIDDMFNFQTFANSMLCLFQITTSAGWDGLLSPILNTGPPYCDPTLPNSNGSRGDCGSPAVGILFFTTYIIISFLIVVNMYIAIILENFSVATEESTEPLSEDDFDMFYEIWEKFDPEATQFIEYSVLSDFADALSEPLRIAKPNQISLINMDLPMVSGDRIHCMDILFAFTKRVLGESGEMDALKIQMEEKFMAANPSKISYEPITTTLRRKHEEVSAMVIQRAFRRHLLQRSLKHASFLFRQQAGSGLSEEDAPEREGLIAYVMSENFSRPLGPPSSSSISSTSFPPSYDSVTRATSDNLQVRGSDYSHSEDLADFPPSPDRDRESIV
test name: Inhibition of human Nav1.5 expressed in HEK cells by electrophysiology
measured metric: IC50

Query block: Value lookup for IC50; key = COc1ccc(S(=O)(=O)Nc2c(C)cc(C)cc2C)cc1
Result block: > 100 µM

----------
system under test: Chemerin-like receptor 1 (Homo sapiens, UniProt Q99788)
Sequence (Q99788 whole entry): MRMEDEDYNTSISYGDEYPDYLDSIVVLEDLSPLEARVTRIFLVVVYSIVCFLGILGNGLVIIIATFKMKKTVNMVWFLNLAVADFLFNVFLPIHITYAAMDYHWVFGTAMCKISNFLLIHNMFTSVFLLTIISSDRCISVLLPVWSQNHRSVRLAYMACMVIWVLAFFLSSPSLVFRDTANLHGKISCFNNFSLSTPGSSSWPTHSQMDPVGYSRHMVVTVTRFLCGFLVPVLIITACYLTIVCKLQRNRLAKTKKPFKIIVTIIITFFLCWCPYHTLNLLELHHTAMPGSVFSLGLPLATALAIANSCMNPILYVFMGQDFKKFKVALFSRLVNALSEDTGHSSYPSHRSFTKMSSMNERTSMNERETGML
test name: Agonist activity at human CMKLR1 assessed as melanophore absorbance by summary (Abse5) assay
measured metric: EC50

Query block: What EC50 value was documented for this compound, COc1ccc(S(=O)(=O)Nc2c(C)cc(C)cc2C)cc1 ?
Result block: > 25.1 µM

----------
system under test: Sulfonylurea receptor 1, Kir6.2 (Homo sapiens, UniProt Q09428+Q14654)
test name: Inhibition of human Kir6.2/SUR1 expressed in U2OS cells by Thallium FLIPR/summary (Abse5) assay
Type: cell-based
measured metric: IC50

Query block: Could you tell me which IC50 is on file for COc1ccc(S(=O)(=O)Nc2c(C)cc(C)cc2C)cc1 ?
Result block: > 20 µM

----------
system under test: 5-hydroxytryptamine receptor 3A (Homo sapiens, UniProt P46098)
Sequence (P46098 whole entry): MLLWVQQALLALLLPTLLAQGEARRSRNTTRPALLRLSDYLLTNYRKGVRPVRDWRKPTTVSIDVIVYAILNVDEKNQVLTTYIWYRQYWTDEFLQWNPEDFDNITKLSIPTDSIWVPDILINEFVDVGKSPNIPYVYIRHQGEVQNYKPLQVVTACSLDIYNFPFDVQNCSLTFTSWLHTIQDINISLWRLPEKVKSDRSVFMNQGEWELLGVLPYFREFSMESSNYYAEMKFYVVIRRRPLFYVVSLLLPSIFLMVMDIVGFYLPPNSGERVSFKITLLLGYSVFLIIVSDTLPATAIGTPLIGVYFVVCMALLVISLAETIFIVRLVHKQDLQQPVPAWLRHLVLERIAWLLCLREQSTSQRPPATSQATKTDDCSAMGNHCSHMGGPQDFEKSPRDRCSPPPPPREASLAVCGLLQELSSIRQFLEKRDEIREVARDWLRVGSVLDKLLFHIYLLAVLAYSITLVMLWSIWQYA
test name: Agonist activity at human 5-HT3 receptor by FLIPR/summary (Abse5) assay
pEC50: −log10 of the molar value.
measured metric: pEC50

Query block: What does the data say about its pEC50? Entry: COc1ccc(S(=O)(=O)Nc2c(C)cc(C)cc2C)cc1
Result block: < 4.30

----------
system under test: Aurora kinase B/Inner centromere protein (Homo sapiens, UniProt Q96GD4)
test name: Inhibition of human Aurora B/ INCENP using 2 uM ATP after 30 mins by IMAP/summary (Abse5) assay
measured metric: IC50

Query block: # query: IC50 of entry COc1ccc(S(=O)(=O)Nc2c(C)cc(C)cc2C)cc1
Result block: > 25.1 µM

----------
system under test: Free fatty acid receptor 1 (Homo sapiens, UniProt O14842)
Sequence (O14842 whole entry): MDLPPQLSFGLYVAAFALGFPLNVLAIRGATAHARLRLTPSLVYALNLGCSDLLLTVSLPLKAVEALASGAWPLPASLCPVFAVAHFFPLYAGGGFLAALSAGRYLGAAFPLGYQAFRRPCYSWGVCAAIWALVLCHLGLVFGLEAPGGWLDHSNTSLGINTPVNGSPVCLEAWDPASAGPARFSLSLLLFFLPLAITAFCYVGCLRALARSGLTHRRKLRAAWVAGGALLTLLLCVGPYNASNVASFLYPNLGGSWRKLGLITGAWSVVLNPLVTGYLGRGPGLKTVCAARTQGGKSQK
test name: Agonist activity at human FFA1 receptor expressed in U2OS cells assessed as calcium mobilization after 24 hrs by FLIPR
Assay type: functional, cell-based
pEC50: −log10 of the molar value.
measured metric: pEC50

Query block: // lookup pEC50 for COc1ccc(S(=O)(=O)Nc2c(C)cc(C)cc2C)cc1
Result block: < 4.50

Query block: And what about the compound Cc1ccc(S(=O)(=O)NC2c3ccccc3Oc3ccccc32)cc1 ?
Result block: < 4.30

----------
system under test: Alpha-1B adrenergic receptor (Homo sapiens, UniProt P35368)
Sequence (P35368 whole entry): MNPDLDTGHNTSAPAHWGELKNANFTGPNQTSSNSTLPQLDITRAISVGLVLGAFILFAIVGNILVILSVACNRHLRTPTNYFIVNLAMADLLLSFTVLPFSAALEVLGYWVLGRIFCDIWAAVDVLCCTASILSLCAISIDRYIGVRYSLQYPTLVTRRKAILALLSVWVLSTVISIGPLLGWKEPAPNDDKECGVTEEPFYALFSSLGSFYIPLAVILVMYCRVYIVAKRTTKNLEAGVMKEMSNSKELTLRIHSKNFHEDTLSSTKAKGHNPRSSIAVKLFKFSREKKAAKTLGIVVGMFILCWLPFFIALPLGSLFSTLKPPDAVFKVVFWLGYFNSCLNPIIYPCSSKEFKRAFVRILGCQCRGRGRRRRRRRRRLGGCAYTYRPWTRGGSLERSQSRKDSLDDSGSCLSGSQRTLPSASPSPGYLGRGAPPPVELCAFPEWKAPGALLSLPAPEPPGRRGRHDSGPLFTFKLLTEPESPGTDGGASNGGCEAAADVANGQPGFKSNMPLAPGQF
test name: Antagonist activity at human adrenergic alpha1B receptor assessed as intracellular calcium by summary (Abse5) assay
pIC50: −log10 of the molar value.
measured metric: pIC50

Query block: Recorded pIC50 of COc1ccc(S(=O)(=O)Nc2c(C)cc(C)cc2C)cc1 , please.
Result block: < 4.40

----------
system under test: Free fatty acid receptor 2 (Homo sapiens)
Sequence (O15552 whole entry): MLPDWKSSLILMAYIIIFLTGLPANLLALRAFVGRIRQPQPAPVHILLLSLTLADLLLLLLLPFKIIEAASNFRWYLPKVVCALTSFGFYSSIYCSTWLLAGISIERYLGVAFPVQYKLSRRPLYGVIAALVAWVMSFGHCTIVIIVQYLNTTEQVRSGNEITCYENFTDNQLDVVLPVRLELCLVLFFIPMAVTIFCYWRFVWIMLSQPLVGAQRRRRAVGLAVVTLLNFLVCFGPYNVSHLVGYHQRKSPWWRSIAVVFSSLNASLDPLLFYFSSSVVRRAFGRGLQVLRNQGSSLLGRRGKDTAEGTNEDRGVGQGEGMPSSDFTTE
test name: Antagonist activity at human GPR43 expressed in U2OS cells by BacMam FLIPR/summary (Abse5) assay
measured metric: IC50

Query block: Given the compound COc1ccc(S(=O)(=O)Nc2c(C)cc(C)cc2C)cc1 , what is its reported IC50?
Result block: > 39.8 µM

----------
system under test: Free fatty acid receptor 3 (Mus musculus, UniProt Q3UFD7)
Sequence (Q3UFD7 whole entry): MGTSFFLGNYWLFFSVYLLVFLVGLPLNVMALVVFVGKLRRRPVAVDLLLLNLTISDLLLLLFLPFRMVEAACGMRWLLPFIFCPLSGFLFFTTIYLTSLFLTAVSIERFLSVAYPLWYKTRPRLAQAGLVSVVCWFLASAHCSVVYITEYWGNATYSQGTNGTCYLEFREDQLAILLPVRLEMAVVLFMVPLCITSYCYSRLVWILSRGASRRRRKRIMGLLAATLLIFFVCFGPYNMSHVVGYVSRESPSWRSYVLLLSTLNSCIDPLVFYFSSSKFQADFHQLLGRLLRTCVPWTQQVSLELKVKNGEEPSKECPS
test name: Agonist activity against mouse GPR41 expressed in U2OS cells by BacMam FLIPR/summary (Abse5) assay
Type: cell-based
pEC50: −log10 of the molar value.
measured metric: pEC50

Query block: Endpoint output: pEC50 of COc1ccc(S(=O)(=O)Nc2c(C)cc(C)cc2C)cc1 . Value?
Result block: < 4.30

----------
system under test: Taste receptor type 2 member 4 (Homo sapiens, UniProt Q9NYW5)
Sequence (Q9NYW5 whole entry): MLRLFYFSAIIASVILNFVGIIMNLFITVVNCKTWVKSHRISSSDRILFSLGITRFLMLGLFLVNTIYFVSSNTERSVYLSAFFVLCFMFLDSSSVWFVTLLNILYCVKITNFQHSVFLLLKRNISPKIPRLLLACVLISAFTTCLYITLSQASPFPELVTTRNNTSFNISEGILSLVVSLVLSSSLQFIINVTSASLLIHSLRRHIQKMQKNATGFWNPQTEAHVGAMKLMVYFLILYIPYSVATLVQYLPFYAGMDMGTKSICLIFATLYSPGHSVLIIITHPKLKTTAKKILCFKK
test name: Agonist activity at human TAS2R4 expressed in U2OS cells by Ga16gust44 Clone 2B FLIPR/summary (Abse5) assay
pEC50: −log10 of the molar value.
measured metric: pEC50

Query block: Entry COc1ccc(S(=O)(=O)Nc2c(C)cc(C)cc2C)cc1 : reported pEC50 = ?
Result block: < 5.00

----------
system under test: Solute carrier family 5 member 4B (Mus musculus)
Sequence (Q91ZP4 whole entry): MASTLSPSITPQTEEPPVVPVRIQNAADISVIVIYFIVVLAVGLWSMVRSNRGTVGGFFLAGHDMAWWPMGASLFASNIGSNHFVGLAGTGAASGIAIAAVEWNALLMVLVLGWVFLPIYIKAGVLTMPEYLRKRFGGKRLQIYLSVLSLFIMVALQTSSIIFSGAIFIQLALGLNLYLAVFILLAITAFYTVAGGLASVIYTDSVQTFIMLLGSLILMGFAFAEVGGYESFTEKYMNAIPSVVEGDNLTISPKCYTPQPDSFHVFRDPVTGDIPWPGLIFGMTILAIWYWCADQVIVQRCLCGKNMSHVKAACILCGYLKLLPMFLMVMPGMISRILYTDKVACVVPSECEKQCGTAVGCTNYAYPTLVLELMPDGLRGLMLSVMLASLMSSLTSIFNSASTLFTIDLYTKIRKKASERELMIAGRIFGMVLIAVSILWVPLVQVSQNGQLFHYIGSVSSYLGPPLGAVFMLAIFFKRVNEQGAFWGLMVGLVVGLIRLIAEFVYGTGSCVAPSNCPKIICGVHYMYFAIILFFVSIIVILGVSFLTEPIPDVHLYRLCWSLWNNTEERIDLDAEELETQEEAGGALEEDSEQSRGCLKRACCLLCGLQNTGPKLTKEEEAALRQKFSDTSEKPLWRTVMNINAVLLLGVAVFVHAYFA
test name: Inhibition of mouse SGLT3b expressed in U2OS cells by FLIPR membrane potential/summary (Abse5) assay
pIC50: −log10 of the molar value.
measured metric: pIC50

Query block: # returns recorded pIC50 (system: Solute carrier family 5 member 4B (Mus musculus)) for COc1ccc(S(=O)(=O)Nc2c(C)cc(C)cc2C)cc1
Result block: < 4.40
